Test: Genotoxicity in Salmonella typhimurium TA1535 harboring pSK1002 assessed as umu gene induction at 0.001 mg/ml in presence of Sprague-Dawley rat liver S9 fraction after by SOS/umu assay relative to control
Assay type: toxicity, organism-based
Details: salmonella enterica subsp. enterica serovar typhimurium, read-out: FC
fold induction at 0.001 mg/ml listing for selected compounds.

{"columns": ["compound", "fold induction at 0.001 mg/ml"],
 "data": [
  ["O=[N+]([O-])c1ccccc1N1CCN(CCC(O)c2ccc(F)c3ccccc23)CC1 (stereo not drawn)", 1.4],
  ["COc1ccccc1C1=CCN(CCC(O)c2ccc(F)cc2)CC1 (stereo not drawn)", 1.2],
  ["OC(CCN1CCN(c2ccccc2C(F)(F)F)CC1)c1ccc(F)cc1 (stereo not drawn)", 1.1],
  ["OC(CCN1CCN(C(c2ccccc2)c2ccccc2)CC1)c1ccc(F)cc1 (stereo not drawn)", 1],
  ["OC(CCN1CC=C(c2ccc(F)cc2)CC1)c1ccc2c(c1)OCO2 (stereo not drawn)", 0.7],
  ["N#Cc1ccc(N2CCC(NCCC(O)c3ccc(F)c4ccccc34)CC2)c(Br)c1 (stereo not drawn)", 0.9],
  ["N#Cc1ccc(C(O)CCN2CC=C(c3ccc(F)cc3)CC2)cc1 (stereo not drawn)", 1.1],
  ["N#Cc1ccc(N2CCC(NCCC(O)c3ccc(F)c4ccccc34)CC2)c(Cl)c1 (stereo not drawn)", 0.9],
  ["Nc1ccc(N2CCC(NCCC(O)c3ccc(F)c4ccccc34)CC2)c(C(F)(F)F)c1 (stereo not drawn)", 0.6],
  ["OC(CCN1CCN(c2ccc(F)cc2)CC1)c1ccc(F)c2ccccc12 (stereo not drawn)", 0.9],
  ["O=[N+]([O-])c1ccc(N2CCN(CCC(O)c3ccc(F)c4ccccc34)CC2)cc1 (stereo not drawn)", 0.8],
  ["COc1ccccc1N1CCN(CCC(O)c2ccc(F)cc2)CC1 (stereo in doubt; 66)", 1.3],
  ["OC(CCN1CCN(C(c2ccccc2)c2ccccc2)CC1)c1ccc(Cl)cc1 (stereo not drawn)", 0.6],
  ["OC(CCN1CCN(C(c2ccccc2)c2ccccc2)CC1)c1ccc(F)c2ccccc12 (stereo not drawn)", 0.9],
  ["COc1ccccc1C1=CCN(CCC(O)c2ccc(F)c3ccccc23)CC1 (stereo not drawn)", 0.8],
  ["COC(=O)c1ccc(C(O)CCN2CC=C(c3ccc(F)cc3)CC2)cc1 (stereo not drawn)", 0.8],
  ["OC(CCN1CCN(C(c2ccccc2)c2ccccc2)CC1)c1ccc(F)c(Cl)c1 (stereo not drawn)", 0.5],
  ["OC(CCN1CCN(C(c2ccccc2)c2ccccc2)CC1)c1ccc(Br)cc1 (stereo not drawn)", 0.7],
  ["OC(CCN1CCN(c2ccccc2C(F)(F)F)CC1)c1ccc(F)c2ccccc12 (stereo in doubt; 55)", 0.3],
  ["COc1ccccc1N1CCN(CCC(O)c2ccc(F)c3ccccc23)CC1 (stereo not drawn)", 0.9],
  ["Oc1ccc(C(O)CCN2CC=C(c3ccc(F)cc3)CC2)cc1 (stereo not drawn)", 0.5],
  ["N#Cc1ccc(N2CCC(NCCC(O)c3ccc(F)c4ccccc34)CC2)c(C(F)(F)F)c1 (stereo in doubt; 72)", 0.8],
  ["OC(CCN1CCN(C(c2ccccc2)c2ccccc2)CC1)c1ccc(F)c(F)c1 (stereo not drawn)", 0.6]
]}
